ASSAYED_TARGET: mouse thyrotropin releasing hormone receptor (TRH-R) (Mus musculus)
Construct: containing the protein-coding region of the mouse TRH-R cDNA, nucleotides 233-1462 of plasmid pBSmTRHR; expressed in transfected cells; host or cells: Primary Sprague-Dawley rat hepatocytes transduced with adenovirus AdCMV.mTRH-R, either in vitro (moi 1-100) or in vivo (i.v., hepatocytes isolated 5 days later)
Sequence (P21761 whole entry): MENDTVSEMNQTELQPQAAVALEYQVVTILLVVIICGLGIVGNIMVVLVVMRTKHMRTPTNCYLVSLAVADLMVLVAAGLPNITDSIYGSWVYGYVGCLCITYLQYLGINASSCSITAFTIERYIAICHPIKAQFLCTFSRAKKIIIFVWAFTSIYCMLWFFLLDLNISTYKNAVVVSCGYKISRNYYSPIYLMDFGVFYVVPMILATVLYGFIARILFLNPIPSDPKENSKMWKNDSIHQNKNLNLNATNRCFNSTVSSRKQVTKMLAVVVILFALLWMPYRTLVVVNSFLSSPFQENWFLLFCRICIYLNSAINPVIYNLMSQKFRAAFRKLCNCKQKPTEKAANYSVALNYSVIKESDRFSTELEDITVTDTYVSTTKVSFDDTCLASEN
Assay type: binding
CONDITION_DESCRIPTION: read-out: Kd of methyl-TRH binding
ATTRIBUTE_MEASURED: Kd (nM)

[[record]]
molecule = "Cn1cnc(C[C@H](NC(=O)[C@@H]2CCC(=O)N2)C(=O)N2CCC[C@H]2C(N)=O)c1 [methyl-TRH, methylthyrotropin releasing hormone]"
u = "nM"
test_value = 3.18

